# Experimental Target: Recombinant human PI3Kγ (full length human PI3K p110γ) (Homo sapiens)
# Construct: full length human PI3K p110γ fused with a His6-tag at the C-terminus; His6 (C); purchased ALEXIS BIOCHEMICALS #201-055-C010; host or cells: S. frugiperda 9 insect cells
# Sequence (P48736 whole entry, the tested form may be a part): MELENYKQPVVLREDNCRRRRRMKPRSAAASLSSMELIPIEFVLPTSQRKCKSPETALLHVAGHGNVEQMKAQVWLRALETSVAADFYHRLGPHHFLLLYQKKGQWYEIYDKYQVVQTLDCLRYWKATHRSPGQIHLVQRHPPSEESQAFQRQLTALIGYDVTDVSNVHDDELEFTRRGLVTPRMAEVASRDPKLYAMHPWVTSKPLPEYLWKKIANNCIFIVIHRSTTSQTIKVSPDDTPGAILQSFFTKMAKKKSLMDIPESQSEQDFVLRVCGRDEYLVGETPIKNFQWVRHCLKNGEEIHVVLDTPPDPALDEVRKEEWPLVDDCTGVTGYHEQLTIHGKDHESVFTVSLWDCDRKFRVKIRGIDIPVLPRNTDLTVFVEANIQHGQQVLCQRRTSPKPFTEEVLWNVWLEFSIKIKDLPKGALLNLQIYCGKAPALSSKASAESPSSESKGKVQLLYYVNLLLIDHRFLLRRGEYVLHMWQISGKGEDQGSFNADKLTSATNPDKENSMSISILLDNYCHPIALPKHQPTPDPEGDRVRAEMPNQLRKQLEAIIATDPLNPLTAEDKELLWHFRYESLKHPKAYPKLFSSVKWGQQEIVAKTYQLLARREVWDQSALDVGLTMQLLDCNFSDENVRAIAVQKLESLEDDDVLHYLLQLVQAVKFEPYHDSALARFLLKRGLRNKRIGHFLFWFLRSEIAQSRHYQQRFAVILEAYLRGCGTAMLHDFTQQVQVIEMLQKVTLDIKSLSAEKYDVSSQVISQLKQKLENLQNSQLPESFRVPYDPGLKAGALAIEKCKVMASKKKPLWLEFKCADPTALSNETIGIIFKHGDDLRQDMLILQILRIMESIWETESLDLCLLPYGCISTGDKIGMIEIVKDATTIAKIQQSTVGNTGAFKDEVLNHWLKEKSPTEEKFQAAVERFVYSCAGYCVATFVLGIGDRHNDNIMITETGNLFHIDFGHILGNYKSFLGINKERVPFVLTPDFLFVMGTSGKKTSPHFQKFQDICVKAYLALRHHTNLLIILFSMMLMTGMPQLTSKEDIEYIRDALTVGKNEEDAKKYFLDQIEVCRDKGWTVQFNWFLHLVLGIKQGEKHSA
# Assay Text: Kinase assay of PI3Kγ (solid-phase lipid kinase assay)
# Format: biochemical
# Test Settings: Table 1, isozyme not given; read-out: in vitro
Reported IC50 is given for each of the following compounds.
Endpoint: IC50

In [3]: df
Out[3]:
                                   compound                       experimental_target  experimental_value
0  COc1c(OCC(=O)N2CCOCC2)ccc2c1N=C(/C=C(\O)c1cccnc1)N1CCN=C21 [Example 1-29]  Recombinant human PI3Kγ (full length human PI3K p110γ) (Homo sapiens)            < 0.1 µM
1  CC(=O)Oc1cccc2c1N=C(/C=C(\O)c1cccnc1)N1CCN=C21 [Example 1-93]  Recombinant human PI3Kγ (full length human PI3K p110γ) (Homo sapiens)       0.1 to 0.5 µM
2  Cc1nc(C)c(/C(O)=C/C2=Nc3ccccc3C3=NCCN23)s1 [Example 1-156]  Recombinant human PI3Kγ (full length human PI3K p110γ) (Homo sapiens)            < 0.1 µM
3  COc1c(OCC(=O)NC(C)C)ccc2c1N=C(/C=C(\O)c1cccnc1)N1CCN=C21.Cl [Example 1-26]  Recombinant human PI3Kγ (full length human PI3K p110γ) (Homo sapiens)            < 0.1 µM
